measurement notes: physchem
applied conditions: buffer, pH 7.4
endpoint label: logD

Study these solved cases before continuing.
Cn1cc(-c2ccnc(N3CCn4c(cc5c4CCCC5)C3=O)c2CO)cc(Nc2ccc(N3CCN(C4COC4)CC3)cn2)c1=O
2
Cn1cc(-c2cncc(N3CCn4c(cc5c4CCCC5)C3=O)c2CO)cc(Nc2ccc(N3CCN(C4COC4)CC3)cn2)c1=O
1.9

Report logD for "Cn1cc(-c2cc(F)cc(N3CCn4c(cc5c4CCCC5)C3=O)c2CO)cc(Nc2ccc(N3CCN(C4COC4)CC3)cn2)c1=O" please.
3.1

Item under review: "C[C@@H]1CN(c2ccc(Nc3cc(-c4ccnc(N5CCn6c(cc7c6CC(C)(C)C7)C5=O)c4CO)cn(C)c3=O)nc2)[C@@H](C)CN1C1COC1" . Reported logD?
3.5

Find the recorded logD belonging to "CC(=O)N1CCN(c2ccc(Nc3cc(-c4ccnc(N5CCn6c(cc7c6CC(C)(C)C7)C5=O)c4CO)cn(C)c3=O)nc2)CC1" and report it.
2.9

May I ask what logD has been recorded for "Cn1cc(-c2ccnc(N3CCn4c(cc5c4CC(C)(C)C5)C3=O)c2CO)cc(Nc2ccc(N3CCN(CCC(F)(F)F)CC3)cn2)c1=O" ?
4.4

Requested read-out: logD. Entry: "CC(=O)N1CC2(C1)CN(c1ccc(Nc3cc(-c4ccnc(N5CCn6c(cc7c6CC(C)(C)C7)C5=O)c4CO)cn(C)c3=O)nc1)C2"
2.5

###

Listed below: Ki values for each entry.
tested on: Tyrosine-protein kinase BTK (Homo sapiens)
Sequence (Q06187 whole entry, the tested form may be a part): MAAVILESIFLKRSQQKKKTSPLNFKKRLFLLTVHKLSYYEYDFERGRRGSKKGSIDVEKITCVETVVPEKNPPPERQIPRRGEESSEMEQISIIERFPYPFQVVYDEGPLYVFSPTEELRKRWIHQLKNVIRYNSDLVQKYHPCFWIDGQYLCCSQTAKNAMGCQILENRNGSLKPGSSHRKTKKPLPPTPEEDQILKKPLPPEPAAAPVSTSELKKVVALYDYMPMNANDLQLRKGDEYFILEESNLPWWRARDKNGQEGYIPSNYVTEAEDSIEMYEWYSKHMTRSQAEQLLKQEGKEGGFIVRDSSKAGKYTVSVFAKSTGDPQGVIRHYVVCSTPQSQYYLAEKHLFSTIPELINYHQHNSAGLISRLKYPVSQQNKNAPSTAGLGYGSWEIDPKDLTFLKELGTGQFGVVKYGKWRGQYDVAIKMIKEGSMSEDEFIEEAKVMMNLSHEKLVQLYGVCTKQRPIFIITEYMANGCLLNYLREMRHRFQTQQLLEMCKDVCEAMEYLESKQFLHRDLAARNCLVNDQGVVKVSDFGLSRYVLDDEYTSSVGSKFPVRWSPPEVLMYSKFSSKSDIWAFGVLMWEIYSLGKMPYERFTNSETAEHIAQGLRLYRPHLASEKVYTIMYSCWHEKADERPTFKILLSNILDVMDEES
measurement notes: Inhibition of human recombinant C-terminal polyhistidine tagged BTK (1 to 659 residues)-mediated synthetic peptide substrate phosphorylation expressed in baculovirus-infected insect cells
Number only, in nM; omit the unit.

Look over these answered cases.
Cn1cc(-c2ccnc(N3CCn4c5c(c(F)c4C3=O)CCCC5)c2CO)cc(Nc2ccc(N3CCN(C4COC4)CC3)cn2)c1=O
2.5
Cn1cc(-c2ccnc(N3Cc4cc(C(C)(C)C)sc4C3=O)c2CO)cc(Nc2ccc(N3CCN(C4COC4)CC3)cn2)c1=O
1
Cn1cc(-c2cncc(N3CCn4c(cc5c4CCCC5)C3=O)c2CO)cc(Nc2ccc(N3CCN(C4COC4)CC3)cn2)c1=O
6.3

Can you look up the measured Ki of "Cn1cc(-c2ccnc(-n3ccn4c5c(cc4c3=O)CCCC5)c2CO)cc(Nc2ccc(N3CCN(C4COC4)CC3)cn2)c1=O" for me?
4.2

###

measurement notes: Clearance in human liver microsomes at 1 uM incubated up to 60 mins by LC-MS/MS method
Format: ADME, microsome
Mark MET for reported CLhep predicted at 1 µM of 9 mL/min/kg or greater; mark NOT MET for anything smaller.

C[C@@H]1CN(C)CCN1c1ccc(Nc2cc(-c3cc(F)cc(N4CCn5c(cc6c5CCCC6)C4=O)c3CO)cn(C)c2=O)nc1
MET
CC[C@H]1CN(C2COC2)CCN1c1ccc(Nc2cc(-c3ccnc(N4CCn5c(cc6c5CC(C)(C)C6)C4=O)c3CO)cn(C)c2=O)nc1
MET
COCCN1CCN(c2ccc(Nc3cc(-c4ccnc(N5CCn6c(cc7c6CC(C)(C)C7)C5=O)c4CO)cn(C)c3=O)nc2)CC1
MET
Cn1cc(-c2nccc(N3CCn4c(cc5c4CCCC5)C3=O)c2CO)cc(Nc2ccc(N3CCN(C4COC4)CC3)cn2)c1=O
NOT MET
Cn1cc(-c2ccnc(N3CCn4c(cc5c4CC(C)(C)C5)C3=O)c2CO)cc(Nc2ccc(N3CCN(CCC(F)(F)F)CC3)cn2)c1=O
MET

Item "C[C@H]1CN(C2COC2)CCN1c1ccc(Nc2cc(-c3ccnc(N4CCn5c(cc6c5CC(C)(C)C6)C4=O)c3CO)cn(C)c2=O)nc1" with CLhep predicted at 1 µM of 9 mL/min/kg or above?
MET
